Values from patent US11478442B2

experiment: Phase one study, food effect: single 1000 mg dose fasted vs fed, plasma pharmacokinetics of free and total DGLA; format: in vivo, human; conditions: human, plasma, oral, 1000 mg, fed, read-out: total DGLA tmax, median
ENDPOINT_LABEL: Tmax (h)
Write it as a number; the unit h goes unstated.

Query :: Recall and state the measured Tmax for CCCCC/C=C\C/C=C\C/C=C\CCCCCCC(=O)O .
Result :: 15

* * *

experiment: Phase one study, multiple dose (28 days): plasma pharmacokinetics of total DGLA incl. steady state; format: in vivo, human; settings: both sexes, human, plasma, oral; with multiple doses, both dose cohorts; read-out: total DGLA Median T (tmax)
ENDPOINT_LABEL: Tmax

Query :: Recall and state the measured Tmax for CCCCC/C=C\C/C=C\C/C=C\CCCCCCC(=O)O .
Result :: 8 to 10 h

* * *

test: Phase one study, food effect: single 1000 mg dose fasted vs fed, plasma pharmacokinetics of free and total DGLA; type: in vivo, human; details: human, plasma, oral, 1000 mg, fasted, read-out: total DGLA tmax, median
ENDPOINT_LABEL: Tmax (h)
Write it as a number; the unit h goes unstated.

Query :: Recall and state the measured Tmax for CCCCC/C=C\C/C=C\C/C=C\CCCCCCC(=O)O .
Result :: 8

* * *

assay: Phase one study, multiple dose (28 days): plasma pharmacokinetics of total DGLA incl. steady state; format: in vivo, human; conditions: both sexes, human, plasma, oral, 2000 mg, 2000 mg dose cohort, Day 28, assessed over 24 hours; read-out: Median total DGLA elimination t½ (converted)
ENDPOINT_LABEL: half-life (h)
Write it as a number; the unit h goes unstated.

Query :: Recall and state the measured half-life for CCCCC/C=C\C/C=C\C/C=C\CCCCCCC(=O)O .
Result :: 44

* * *

Test: Phase one study, multiple dose (28 days): plasma pharmacokinetics of total DGLA incl. steady state
Assay type: in vivo, human
Conditions: both sexes, human, plasma, oral, 2000 mg, 2000 mg dose cohort, Day 1, assessed over 24 hours; read-out: Median total DGLA elimination t½ (converted)
Protocol: A single-center, double-blind, randomized, placebo-controlled, two part Phase one study was performed in healthy male and female subjects aged 18 to 45 years inclusive. […] Multiple dose part two of the study comprised two cohorts (Cohorts five and six) of eight subjects each, who were administered multiple doses of study drug in the fasted state for 28 days. […] Cohort six was started after Cohort five safety data were evaluated by the SMC. […] Safety assessments were monitored throughout the study. […]
ENDPOINT_LABEL: half-life (h)
Write it as a number; the unit h goes unstated.

Query :: Recall and state the measured half-life for CCCCC/C=C\C/C=C\C/C=C\CCCCCCC(=O)O .
Result :: 34.4

* * *

assay: Phase one study, multiple dose (28 days): plasma pharmacokinetics of total DGLA incl. steady state; format: in vivo, human; details: both sexes, human, plasma, oral, 2000 mg, 2000 mg dose cohort, Day 28, evaluated over 0 to 168 hours; read-out: Median total DGLA elimination t½ (converted)
ENDPOINT_LABEL: half-life (h)
Write it as a number; the unit h goes unstated.

Query :: Recall and state the measured half-life for CCCCC/C=C\C/C=C\C/C=C\CCCCCCC(=O)O [DGLA, Dihomo gamma linolenic acid] .
Result :: 62.6
